Source of measurements: patent US20250042884A1

biological target: TRPA1 (Mus musculus (Mouse)); assay: Manual patch clamp test of TRPA1 inhibitory activity; type: cell-based; details: FIG. 2
Sequence (Q8BLA8 whole entry): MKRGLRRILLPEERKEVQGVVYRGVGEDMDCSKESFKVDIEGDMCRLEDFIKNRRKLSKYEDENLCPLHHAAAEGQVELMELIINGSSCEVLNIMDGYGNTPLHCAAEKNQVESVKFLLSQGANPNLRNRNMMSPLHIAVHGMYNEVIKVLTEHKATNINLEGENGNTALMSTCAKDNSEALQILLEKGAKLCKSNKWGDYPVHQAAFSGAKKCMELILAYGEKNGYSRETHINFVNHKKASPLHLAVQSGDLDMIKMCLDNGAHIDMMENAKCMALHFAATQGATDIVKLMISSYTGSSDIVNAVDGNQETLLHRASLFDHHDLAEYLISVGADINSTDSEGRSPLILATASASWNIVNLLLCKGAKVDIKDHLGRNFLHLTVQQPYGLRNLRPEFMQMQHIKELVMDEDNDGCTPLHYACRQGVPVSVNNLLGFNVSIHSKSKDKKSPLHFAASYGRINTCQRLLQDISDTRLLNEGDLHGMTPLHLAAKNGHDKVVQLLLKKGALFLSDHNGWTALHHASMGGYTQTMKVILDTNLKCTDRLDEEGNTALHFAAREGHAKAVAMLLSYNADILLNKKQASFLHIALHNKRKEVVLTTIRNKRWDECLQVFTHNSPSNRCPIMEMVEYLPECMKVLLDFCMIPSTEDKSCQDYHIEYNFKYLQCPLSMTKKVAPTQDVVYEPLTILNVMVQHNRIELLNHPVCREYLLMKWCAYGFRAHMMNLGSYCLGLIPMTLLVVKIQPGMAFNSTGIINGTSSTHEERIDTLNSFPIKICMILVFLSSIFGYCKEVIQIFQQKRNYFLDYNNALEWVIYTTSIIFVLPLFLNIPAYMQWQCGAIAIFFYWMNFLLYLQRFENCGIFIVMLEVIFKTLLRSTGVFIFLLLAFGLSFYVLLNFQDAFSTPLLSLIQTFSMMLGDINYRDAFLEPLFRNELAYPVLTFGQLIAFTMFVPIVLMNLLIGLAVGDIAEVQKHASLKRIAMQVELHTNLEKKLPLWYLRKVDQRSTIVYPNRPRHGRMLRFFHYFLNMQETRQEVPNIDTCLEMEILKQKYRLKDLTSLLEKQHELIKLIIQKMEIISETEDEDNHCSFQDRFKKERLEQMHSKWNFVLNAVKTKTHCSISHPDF
pIC50: −log10 of the molar value.
parameter: pIC50

> print(dat)
                                   compound  numericresult
1  CNCC[C@@H](Oc1cccc2ccoc12)c1cccs1 [Compound I-1]           6.38
